molecular target: human farnesyl pyrophosphate synthase (hFPPS) (Homo sapiens, UniProt P14324); construct: purified protein, homodimer, subunit 42 kDa; experiment: ITC, one-site model
Sequence (P14324 67-419): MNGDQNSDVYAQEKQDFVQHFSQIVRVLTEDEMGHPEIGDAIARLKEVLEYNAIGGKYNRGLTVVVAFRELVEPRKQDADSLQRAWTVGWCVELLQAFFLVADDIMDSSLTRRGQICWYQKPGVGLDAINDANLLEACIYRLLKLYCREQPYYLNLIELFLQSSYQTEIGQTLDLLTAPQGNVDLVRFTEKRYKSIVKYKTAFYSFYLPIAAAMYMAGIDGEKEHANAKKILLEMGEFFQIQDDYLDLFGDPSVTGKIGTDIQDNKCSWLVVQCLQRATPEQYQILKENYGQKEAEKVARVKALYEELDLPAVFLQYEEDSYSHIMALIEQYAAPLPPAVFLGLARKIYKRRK

GIVEN SMILES: O=P(O)(O)C(Nc1cncc(-c2ccc(OC3CC3)cc2)c1)P(=O)(O)O
READOUT UNITS: µM
Kd: 0.12

Cited source: paper PMC5643135
